Sourced from the RNAGym collection of RNA variant scans (doi:10.1021/acssynbio.7b00057)

B1: Pistol ribozyme (parent)
chain: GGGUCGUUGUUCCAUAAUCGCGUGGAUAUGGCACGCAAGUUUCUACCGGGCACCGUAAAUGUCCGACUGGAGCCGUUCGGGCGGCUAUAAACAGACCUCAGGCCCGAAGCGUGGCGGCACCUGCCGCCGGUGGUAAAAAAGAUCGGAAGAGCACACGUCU

- Variants of: B1
- EXPERIMENT_DESCRIPTION: aptazyme ON/OFF ratio, guanine; higher = stronger switching; co-transcriptional cleavage with and without guanine
Each entry below carries its recorded aptazyme ON/OFF ratio.

{"VARIANT_DESIGNATION": "U8A G9C U10A U11A C12A C13A", "aptazyme ON/OFF ratio": 1.21}
{"VARIANT_DESIGNATION": "G9U U10A U11A", "aptazyme ON/OFF ratio": 2.34}
{"VARIANT_DESIGNATION": "U7A U8G G9C U11C C12A C13G", "aptazyme ON/OFF ratio": 1.18}
{"VARIANT_DESIGNATION": "U7G U8A G9A U10G U11A C12A C13U", "aptazyme ON/OFF ratio": 1.07}
{"VARIANT_DESIGNATION": "U7A U8A G9A U10C U11C C12G C13A", "aptazyme ON/OFF ratio": 1.08}
{"VARIANT_DESIGNATION": "U7C G9C U10G U11C C13A", "aptazyme ON/OFF ratio": 1.1}
{"VARIANT_DESIGNATION": "U7A U8G G9U U10A", "aptazyme ON/OFF ratio": 1.18}
{"VARIANT_DESIGNATION": "U8A G9C U10A U11A C12G C13A", "aptazyme ON/OFF ratio": 1.14}
{"VARIANT_DESIGNATION": "U7G U8C G9C U10G C12G C13U", "aptazyme ON/OFF ratio": 1.1}
{"VARIANT_DESIGNATION": "U7A U8A G9U U10G U11G C12A C13G", "aptazyme ON/OFF ratio": 1.2}
